Target chain: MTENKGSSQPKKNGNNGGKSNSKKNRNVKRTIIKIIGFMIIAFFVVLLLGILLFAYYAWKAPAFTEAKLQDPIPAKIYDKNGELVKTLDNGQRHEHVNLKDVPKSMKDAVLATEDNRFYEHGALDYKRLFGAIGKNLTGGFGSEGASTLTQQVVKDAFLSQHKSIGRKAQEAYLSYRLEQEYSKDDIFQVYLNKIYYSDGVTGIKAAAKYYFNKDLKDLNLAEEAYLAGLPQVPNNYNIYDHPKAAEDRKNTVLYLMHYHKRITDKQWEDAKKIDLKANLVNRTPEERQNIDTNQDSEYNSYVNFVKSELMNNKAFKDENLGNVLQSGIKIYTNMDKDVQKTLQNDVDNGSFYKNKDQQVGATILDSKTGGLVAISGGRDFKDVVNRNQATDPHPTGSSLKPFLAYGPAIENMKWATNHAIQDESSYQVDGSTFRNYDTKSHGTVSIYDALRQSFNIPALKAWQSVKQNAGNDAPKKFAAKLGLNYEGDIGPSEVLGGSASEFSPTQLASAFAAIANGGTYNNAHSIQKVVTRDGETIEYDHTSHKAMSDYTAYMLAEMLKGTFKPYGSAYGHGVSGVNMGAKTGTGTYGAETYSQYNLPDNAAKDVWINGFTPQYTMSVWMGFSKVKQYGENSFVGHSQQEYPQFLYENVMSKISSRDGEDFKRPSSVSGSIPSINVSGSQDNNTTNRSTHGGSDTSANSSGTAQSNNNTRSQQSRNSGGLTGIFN
READOUT_TYPE: IC50 (µM)
Use µM as the unit, but write only the number.

**Q:** What IC50 value was documented for this molecule, NC(=O)[C@@H]1CC[C@@H]2CN1C(=O)N2OS(=O)(=O)O [AVI, avibactam] ?
**A:** 192

Now consider a different molecule.
**Q:** What IC50 value was documented for this molecule, CC(C)(O/N=C(\C(=O)N[C@@H]1C(=O)N2C(C(=O)[O-])=C(C[n+]3ccccc3)CS[C@H]12)c1csc(N)n1)C(=O)O [CAZ, ceftazidime] ?
**A:** 1.28
